As shown below, each of these compounds has a reported activity at 0.01 µM value.
- System: A-427 human pulmonary cancer cells
- measurementNotes: MTT test, proliferation of A-427
- testConditions: Homo sapiens, A-427, 72 h, read-out: level of proliferation
metric: activity at 0.01 µM (%)

>  <compound>
CC1(C)CCC(C)(C)c2cc(/C=C(\c3ccc(C(=O)O)cc3)C(F)(F)F)ccc21

>  <measurementUnits>
%

>  <reported>
89.9

$$$$
>  <compound>
C/C(=C/c1ccc2c(c1)C(C)(C)CCS2(=O)=O)c1ccc(-c2nnn[nH]2)cc1

>  <measurementUnits>
%

>  <reported>
93.9

$$$$
>  <compound>
C/C(=C\c1ccc2c(c1)C(C)(C)CCS2)c1ccc(C(=O)O)cc1

>  <measurementUnits>
%

>  <reported>
107

$$$$
>  <compound>
C/C(=C/c1ccc2c(c1)C(C)(C)CCC2(C)C)c1ccc(C(=O)O)cc1 [CB28628, reference compound]

>  <measurementUnits>
%

>  <reported>
86.7

$$$$
>  <compound>
C/C(=C/c1ccc2c(c1)C(C)(C)CCS2(=O)=O)c1ccc(C(=O)O)cc1

>  <measurementUnits>
%

>  <reported>
131

$$$$
>  <compound>
C/C(=C/c1cc2c(cc1C)C(C)(C)CCC2(C)C)c1ccc(-c2nnn[nH]2)cc1

>  <measurementUnits>
%

>  <reported>
105

$$$$
>  <compound>
COc1cc2c(cc1/C(C)=C/c1ccc(C(=O)O)cc1)C(C)(C)CCS2(=O)=O

>  <measurementUnits>
%

>  <reported>
120

$$$$
>  <compound>
C/C(=C\c1cc2c(cc1C)C(C)(C)CCC2(C)C)c1ccc(-c2nnn[nH]2)cc1

>  <measurementUnits>
%

>  <reported>
100

$$$$
